Reference for the values: the RNAGym collection of RNA variant scans (doi:10.7554/elife.80360)

B1: Twister Ribozyme (parent)
chain: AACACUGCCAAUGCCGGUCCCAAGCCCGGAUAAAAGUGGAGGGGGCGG

# Variants of: B1
# assay_info: self-cleavage, relative activity (ratio to wild type); higher = more cleavage; co-transcriptional
Criterion: self-cleavage meeting or surpassing 0.2. Met: Criterion met. Not met: Criterion not met.

>>> label_class("C27G G43C")
"Criterion not met"
>>> label_class("A2G C19G")
"Criterion not met"
>>> label_class("A32C C46A")
"Criterion met"
>>> label_class("C14U C19A")
"Criterion met"
>>> label_class("G17C G38A")
"Criterion not met"
>>> label_class("C5U A34C")
"Criterion not met"
>>> label_class("U12G U31A")
"Criterion met"
>>> label_class("A23C C25A")
"Criterion not met"
>>> label_class("A4U C25A")
"Criterion not met"
>>> label_class("C14U G28U")
"Criterion met"
>>> label_class("C25G")
"Criterion met"
>>> label_class("C21A C26A")
"Criterion not met"
>>> label_class("U6G G7A")
"Criterion met"
>>> label_class("C26U A35G")
"Criterion not met"
>>> label_class("A11C G29C")
"Criterion met"
>>> label_class("C8A C21A")
"Criterion not met"
>>> label_class("A11U A23C")
"Criterion met"
>>> label_class("G13C")
"Criterion met"
>>> label_class("C20U A30G")
"Criterion met"
>>> label_class("U12C A34C")
"Criterion met"
>>> label_class("C3A C9U")
"Criterion not met"
